- testedTarget: GDP-bound KRAS wild-type protein (Homo sapiens)
- Sequence (P01116 whole entry): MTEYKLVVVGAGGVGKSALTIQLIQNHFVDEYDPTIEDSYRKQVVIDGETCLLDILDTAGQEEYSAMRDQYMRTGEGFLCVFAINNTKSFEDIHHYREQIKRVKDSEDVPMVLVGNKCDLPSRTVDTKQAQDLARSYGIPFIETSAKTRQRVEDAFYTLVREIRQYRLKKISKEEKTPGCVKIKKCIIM
- experimentSummary: Binding to KRAS by surface plasmon resonance (SPR), Single Cycle Kinetics
- appliedConditions: SPR, Single Cycle Kinetics, GDP-bound KRAS wild-type protein; read-out: KRAS KD
Measured Kd of individual entries
Report the figure in nM without appending any unit label.

Please review the following examples before continuing.
Input line: Please report Kd for the following molecule: CCC[C@H]1C(=O)N[C@@H]([C@@H](C)CC)C(=O)N(C2CC2)CC(=O)N(C)[C@H]2C/C=C\CCN(C2=O)[C@@H](CC2CCC(F)(F)CC2)C(=O)N(C)CC(=O)N[C@@H](CCc2ccc(C(F)(F)F)c(OC)c2)C(=O)N2C[C@H](OCC)C[C@H]2C(=O)N(C)C2(CCC2)C(=O)N(C)[C@@H](C2CCCC2)C(=O)N(C)[C@H](C(=O)N(C)C)CC(=O)N1C
Output line: 0.76

Input line: Please report Kd for the following molecule: CCC[C@H]1C(=O)N[C@@H](C2CCCC2)C(=O)N(C)CC(=O)N(C)[C@H]2C/C=C\CCN(C2=O)[C@@H](Cc2ccc(C)cc2)C(=O)N(C)CC(=O)N[C@@H](CCc2cc(F)c(C(F)(F)F)c(F)c2)C(=O)N2CC3(CC3)C[C@H]2C(=O)NC2(CC(C)(C)C2)C(=O)N(C)[C@@H](CC(C)(C)C)C(=O)N(C)[C@H](C(=O)N(C)C)CC(=O)N1C
Output line: 0.13

Input line: Please report Kd for the following molecule: CCO[C@@H]1C[C@H]2C(=O)N(C)C3(CCCC3)C(=O)N(C)[C@@H](C3CCCC3)C(=O)N(C)[C@H](C(=O)N(C)C)CC(=O)N(C)[C@@H](CC)C(=O)N[C@@H]([C@@H](C)CC)C(=O)N3CCC[C@H]3C(=O)N(C)[C@H]3C/C=C\CCN(C3=O)[C@@H](Cc3ccc(C)cc3)C(=O)N(C)CC(=O)N[C@@H](CCc3cc(F)c(C(F)(F)F)c(F)c3)C(=O)N2C1
Output line: 0.16

Input line: Please report Kd for the following molecule: CCC[C@H]1C(=O)N[C@@H]([C@@H](C)CC)C(=O)N(C)CC(=O)N(C)[C@H]2C/C=C\CCN(C2=O)[C@@H](Cc2ccc(C)cc2)C(=O)N(C)CC(=O)N[C@@H](CCc2ccc(C(F)(F)F)c(OC)c2)C(=O)N2C[C@H](OCC)C[C@H]2C(=O)N(C)C2(CCC2)C(=O)N(C)[C@@H](C2CCCC2)C(=O)N(C)[C@H](C(=O)N2CCCC2)CC(=O)N1C
Output line: 0.048

More entries:
Input line: Please report Kd for the following molecule: CCO[C@@H]1C[C@H]2C(=O)NC3(CCC3)C(=O)N(C)[C@@H](C3CCCC3)C(=O)N(C)[C@H](C(=O)N(C)CC)CC(=O)N(C)[C@H]3CCCC/C=C/c4ccc(cc4)C[C@@H](C(=O)N(C)CC(=O)N[C@@H](CCc4cc(F)c(C(F)(F)F)c(F)c4)C(=O)N2C1)N1CC/C=C\C[C@@H](C1=O)N(C)C(=O)CN(C)C(=O)[C@H]([C@@H](C)CC)NC3=O
Output line: 0.029

Input line: Please report Kd for the following molecule: CCO[C@@H]1C[C@H]2C(=O)NC3(CCC3)C(=O)N(C)[C@@H](C3CCCC3)C(=O)N(C)[C@H](C(=O)N(C)C)CC(=O)N(C)[C@@H](CC)C(=O)N[C@@H]([C@@H](C)CC)C(=O)N(C)CC(=O)N(C)[C@H]3CCCCN(C3=O)[C@@H](Cc3ccc(C(F)(F)F)cc3)C(=O)N(C)CC(=O)N[C@@H](CCc3c(F)c(F)c(C(F)(F)F)c(F)c3F)C(=O)N2C1
Output line: 0.086
